Origin of measurements: the supplement of paper PMC9170038

- Tested on: MS2 coat protein
- assay-remarks: apparent KD of MS2 coat protein; designed switch direction (-1 OFF switch, 1 ON switch): 1; higher = weaker reporter binding
- condition: input ligand: microRNA oligo, concentration not stated
The following sequences are shown together with reported apparent KD of MS2 coat protein values.

Short answer for AGGUUCCUGCUAGGAUAUCUAGGAUAUGGACGAGGAUUACCCGAGCAGGAUUACCGCACCAGAGGAGAGAAGGAGCAACAAGAG [pwkr ssNG2 2F5 2FMN.14] (Eterna round: R96, puzzle: Same State NG 2) : apparent KD of MS2 coat protein was 370 nM

Lookup result for UGAGGUGUAGCAGGAUAUGCCGUCAGUCACCCGGCAGAAGGGCUGAAAGCAUGCUCGCACAUGAGGAUCACCCAUGUCACAGUG [Eternabot solution 17] (Eterna round: R96, puzzle: Same State NG 1) ; measured apparent KD of MS2 coat protein: 37.7 nM

In plain terms, GUAGCAUACCGAGGAUAUUCAUAUUACAUGAGGAUCACCCAUGUGGCCAGCAUUAGCUGGCCUUGGGAGAAGGCGGAAUGCUAC [Xeonanis - 20 Mod49] (Eterna round: R96, puzzle: Same State NG 2) has a documented apparent KD of MS2 coat protein of 623 nM

Reported apparent KD of MS2 coat protein ( GAGAGAGGGUGAGGAUAUGGAGUAAUAAUGAUACCAGAAGGCACAGACAUGAGGAUCACCCAUGUGGGAAUAAUCCAGAGAGAG [Parity 7 - Jieux - Same State NG 1] (Eterna round: R96, puzzle: Same State NG 1) ) = 177 nM

For reference, reported apparent KD of MS2 coat protein for GCCGGCUGGUGAGGAUAUGGCGCCUUAUUGGUGCCAGAAGGCAUGUCAAUUGACAUGAGGAUCACCCAUGUGUUGUCGUUGGCG [salish99_SSNG1_r04_610] (Eterna round: R96, puzzle: Same State NG 1) stands at 357 nM

UAUUUAAUCAUAGGAUAUAGUGUGAAAUUUGGACUAGAAGGAUGUAACAUGAGGAUCACCCAUGUGGUAAGUGGGAUACAUUCC [JR_SSNG1_Sub098] (Eterna round: R96, puzzle: Same State NG 1) has a reported apparent KD of MS2 coat protein of 75 nM
